B1: library; a variant is named by its letters at N, in order (parent)
chain: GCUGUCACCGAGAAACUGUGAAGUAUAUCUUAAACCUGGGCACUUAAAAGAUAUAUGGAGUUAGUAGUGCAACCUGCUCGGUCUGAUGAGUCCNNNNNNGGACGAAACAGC

variants of: B1; experiment: FACS-Seq fitted mean relative fluorescence mCherry/BFP with ligand (log10 relative fluorescence); HEK293T; ligand: cyclic di-GMP (c-di-GMP-II aptamer); ligand concentration (+) FACS-Seq: 1 mM; higher = higher reporter protein expression; conditions: ligand present: yes
In this section we review reported FACS-Seq fitted mean (log10) values for a set of variants.
Write the value as a bare number.

>>> recordednumber("ACCUGA")
-0.159

Challenge: // returns reported FACS-Seq fitted mean (log10) for input UUUCUU
Response given: 0.428
